All figures here come from paper PMC5906708.

Target: SlPIF3 (GST-PIF3) (Solanum lycopersicum, UniProt A0A3Q7EQR7 388-618)
Sequence (A0A3Q7EQR7 entry or part of it): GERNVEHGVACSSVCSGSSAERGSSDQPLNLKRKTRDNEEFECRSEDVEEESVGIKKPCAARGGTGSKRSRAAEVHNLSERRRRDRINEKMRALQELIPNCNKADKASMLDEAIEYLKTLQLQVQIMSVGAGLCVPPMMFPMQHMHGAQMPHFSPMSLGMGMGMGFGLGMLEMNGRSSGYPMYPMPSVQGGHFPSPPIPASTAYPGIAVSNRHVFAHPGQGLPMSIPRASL
Experiment: EMSA; LightShift Chemiluminescent EMSA kit, 25 min at 22 C, 6% native PAGE; buffer, salt and pH not stated
Settings: protein: recombinant; tags: GST (pGEX-4T-1); chain copies: 2; label: biotin; blunt

binder | binding result
GAME18 probe (dsDNA) DNA 1: TGATACAACTAAAAGACATACGTTTAAAAAAGCAAATTGATCAAGTCGTTTG DNA 2: CAAACGACTTGATCAATTTGCTTTTTTAAACGTATGTCTTTTAGTTGTATCA | no binding
GAME12 probe (dsDNA) DNA 1: GAAACGATATAATATACGTGATACAAGTTTATTAATAAATCAATGGCCCA DNA 2: TGGGCCATTGATTTATTAATAAACTTGTATCACGTATATTATATCGTTTC | no binding
